All values here come from ChEMBL document CHEMBL2169757.

# Test system: 293T
# assay.method.text: Inhibition of compound-pretreated Ebolavirus GP pseudotyped in HIV virions infected in human 293T cells assessed as viral-cell entry at 60 uM after 48 hrs by luciferase gene assay relative to DMSO-treated control
# Format: cell-based
# Parameters: scale not given: the % may be the effect or the level left
# condition.notes: Zaire ebolavirus
Recorded Activity for the following compounds

CCN(CC)CC(=O)NCc1cc(-c2ccc(C(F)(F)F)cc2)no1	24%
CCN(CC)CC(=O)NCc1cn(-c2ccccc2[N+](=O)[O-])nn1	66%
CC(=O)NCc1cc(-c2ccc(Br)cc2)no1	105%
CCN(CC)CC(=O)NCc1cc(-c2ccc([N+](=O)[O-])cc2)no1	30%
CCN(CC)CC(=O)NCc1cn(-c2cccc(I)c2)nn1	111%

Data request: Endpoint output: Activity of "COc1ccc(-c2cc(CNC(=O)[C@H](CC(=O)OCc3ccccc3)NC(=O)OC(C)(C)C)on2)cc1" . Value?
Data returned: 118%

---

# Test system: 293T
# assay.method.text: Inhibition of compound-pretreated Ebolavirus GP pseudotyped in HIV virions infected in human 293T cells assessed as viral-cell entry at 60 uM after 48 hrs by luciferase gene assay relative to DMSO-treated control
# Assay type: cell-based
# Design: scale not given: the % may be the effect or the level left
# condition.notes: Zaire ebolavirus
measured.endpoint: Activity (%)
Form entry: value (%) — number only.

Past entries and their recorded results:
CCN(CC)CC(=O)NCc1cc(-c2cccc([N+](=O)[O-])c2)no1	37
O=C(NCc1cc(-c2ccc(Br)cc2)no1)c1ccccc1	82
COc1ccc(-c2cc(CNC(=O)CNC(=O)OCc3ccccc3)on2)cc1	148
CCN(CC)CC(=O)NCc1cn(-c2ccc(I)cc2)nn1	4
CCN(CC)CC(=O)NCc1cn(-c2ccc(Br)cc2)nn1	18
CCN(CC)CC(=O)NCc1cc(-c2ccc(I)cc2)no1	6
CCN(CC)CC(=O)NCc1cc(-c2ccc(OC)cc2)no1	56
COc1ccc(-c2cc(CNC(=O)CBr)on2)cc1	121

Data request: Endpoint output: Activity of "COc1ccc(-c2cc(CNC(=O)[C@@H](N)Cc3ccccc3)on2)cc1" . Value?
Data returned: 106

---

# Test system: 293T
# assay.method.text: Inhibition of compound-pretreated Ebolavirus GP pseudotyped in HIV virions infected in human 293T cells assessed as viral-cell entry at 60 uM after 48 hrs by luciferase gene assay relative to DMSO-treated control
# Type: cell-based
# Parameters: scale not given: the % may be the effect or the level left
# condition.notes: Zaire ebolavirus
measured.endpoint: Activity (%)
Form entry: value (%) — number only.

Past entries and their recorded results:
CCN(CC)CC(=O)NCc1cc(-c2ccc(Br)cc2)no1	30
COc1ccc(-c2cc(CNC(=O)[C@H](CS)NC(C)=O)on2)cc1	421
CCN(CC)CC(=O)NCc1cc(-c2ccc(OC)c(I)c2)no1	4

Data request: Which Activity is reported with 293T for this entry: "CCN(CC)CC(=O)NCc1cc(-c2ccccc2OC)no1" ?
Data returned: 87

Data request: Which Activity is reported with 293T for this entry: "CCN(CC)CC(=O)NCc1cn(-c2c(Br)cc(Br)cc2Br)nn1" ?
Data returned: 3

Data request: Which Activity is reported with 293T for this entry: "CCC(=O)NCc1cc(-c2ccc(Br)cc2)no1" ?
Data returned: 99

Data request: Which Activity is reported with 293T for this entry: "CCCCCCCn1cc(CNC(=O)CN(CC)CC)nn1" ?
Data returned: 60

Data request: Which Activity is reported with 293T for this entry: "CCN(CC)CC(=O)NCc1cc(-c2ccc(Cl)cc2)no1" ?
Data returned: 17

---

Recorded Activity for the following compounds
# Test system: 293T
# assay.method.text: Inhibition of compound-pretreated Ebolavirus GP pseudotyped in HIV virions infected in human 293T cells assessed as viral-cell entry at 60 uM after 48 hrs by luciferase gene assay relative to DMSO-treated control
# Type: cell-based
# Parameters: scale not given: the % may be the effect or the level left
# condition.notes: Zaire ebolavirus
Form entry: value (%) — number only.

CCN(CC)CC(=O)NCc1cc(-c2ccc(OC)c(OC)c2)no1	160
CCN(CC)CC(=O)NCc1cn(Cc2ccccc2)nn1	35
CCN(CC)CC(=O)NCc1cc(-c2ccc(O)cc2)no1	132

Data request: Endpoint output: Activity of COc1ccc(-c2cc(CNC(=O)[C@@H](NC(=O)OCc3ccccc3)C3CCCN3C(=O)OCc3ccccc3)on2)cc1 (some centres not stated) . Value?
Data returned: 254

Data request: Endpoint output: Activity of "COc1ccc(-c2cc(CNC(=O)[C@H](Cc3ccccc3)NC(=O)OC(C)(C)C)on2)cc1" . Value?
Data returned: 188

Data request: Endpoint output: Activity of "COc1ccc(-c2cc(CNC(=O)[C@@H](NC(=O)OCc3ccccc3)C(C)C)on2)cc1" . Value?
Data returned: 220

Data request: Endpoint output: Activity of "CCN(CC)CC(=O)NCc1cn(-c2c(Cl)cc(Cl)cc2Cl)nn1" . Value?
Data returned: 33

Data request: Endpoint output: Activity of "CCN(CC)CC(=O)NCc1cc(-c2ccccc2)no1" . Value?
Data returned: 181

Data request: Endpoint output: Activity of "CCN(CC)CC(=O)NCc1cc(-c2c(C)cccc2C)no1" . Value?
Data returned: 59

Data request: Endpoint output: Activity of "CCN(CC)CC(=O)NCc1cc(-c2ccc(C)cc2)no1" . Value?
Data returned: 381

Data request: Endpoint output: Activity of "CCN(CC)CC(=O)NCc1cn(-c2ccc(Cl)cc2)nn1" . Value?
Data returned: 105

Data request: Endpoint output: Activity of "CCN(CC)CC(=O)NCc1cn(-c2ccccc2)nn1" . Value?
Data returned: 46

Data request: Endpoint output: Activity of "CCN(CC)CC(=O)NCc1cc(-c2c(F)c(F)c(F)c(F)c2F)no1" . Value?
Data returned: 52

Data request: Endpoint output: Activity of "CC(C)C(=O)NCc1cc(-c2ccc(Br)cc2)no1" . Value?
Data returned: 116

Data request: Endpoint output: Activity of "CCN(CC)CC(=O)NCc1cc(-c2cccc(OC)c2)no1" . Value?
Data returned: 4

Data request: Endpoint output: Activity of "CCN(CC)CC(=O)NCc1cn(-c2ccc(OC)cc2)nn1" . Value?
Data returned: 58

Data request: Endpoint output: Activity of "CCN(CC)CC(=O)NCc1cc(-c2ccco2)no1" . Value?
Data returned: 77

Data request: Endpoint output: Activity of "CCN(CC)CC(=O)NCc1cn(-c2cccc(OC)c2)nn1" . Value?
Data returned: 90

Data request: Endpoint output: Activity of "CCCc1cc(CNC(=O)CN(CC)CC)on1" . Value?
Data returned: 102

Data request: Endpoint output: Activity of "COc1ccc(-c2cc(CNC(=O)OCC(C)C)on2)cc1" . Value?
Data returned: 118

Data request: Endpoint output: Activity of "CCN(CC)CC(=O)NCc1cn(-c2ccc(OC)cc2[N+](=O)[O-])nn1" . Value?
Data returned: 92

Data request: Endpoint output: Activity of "CCN(CC)CC(=O)NCc1cn(-c2ccccc2Br)nn1" . Value?
Data returned: 19
